B1: glmS ribozyme (parent)
chain: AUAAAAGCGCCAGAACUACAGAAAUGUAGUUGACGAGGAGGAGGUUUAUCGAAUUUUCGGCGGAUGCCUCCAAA

- Variants of: B1
- experimental protocol: self-cleavage kobs at 2500 uM GlcN6P; higher = faster cleavage; RNA array
- test settings: with glucosamine-6-phosphate
Variants at the floor of the assay were thinned out.
measured parameter: self-cleavage kobs at 2500 uM GlcN6P

Any idea what self-cleavage kobs at 2500 uM GlcN6P was measured for AUAAAAGCGCCAGAGCUACAGAAAUGUAGUUGACGAGAAGGAGGUUUUUCGAAUUUUCGGCGGAUGCCUCCAAA [A15G G38A A48U] ?
< 1e-05 s⁻¹

Any idea what self-cleavage kobs at 2500 uM GlcN6P was measured for AUAAAACCGCUAGAACUACAGAAAUGUAGUUGAGGAGGAGGAGGUUUAGCGAAUUUUCGGCGGAUGCCUCCAAA [G7C C11U C34G U49G] ?
< 1e-05 s⁻¹

Any idea what self-cleavage kobs at 2500 uM GlcN6P was measured for AUAAAAGCGCCAGAACUACAGAAAUGUAAUUGACGAGGAGGAGGUUUUUCGAUUUUUAUGCGGAUGCCUCCAAA [G29A A48U A53U C58A G59U] ?
< 1e-05 s⁻¹

Any idea what self-cleavage kobs at 2500 uM GlcN6P was measured for AUAAAAGAGCCAGAACUACAGAAAUGUAGUUGACGAGGAGGAGGUUUAUCGAAUGUUCGGCGGUUGCCUCCAAA [C8A U55G A64U] ?
< 1e-05 s⁻¹

Any idea what self-cleavage kobs at 2500 uM GlcN6P was measured for AUAAAAGCGACAGAAUUACAGAAAUGUAGUUGACGAGGAGGAGGUUUAUCGAAUUUUCGGCGGUUGCCUCCAAA [C10A C16U A64U] ?
< 1e-05 s⁻¹

Any idea what self-cleavage kobs at 2500 uM GlcN6P was measured for AUAAAAGCGCCAGAACUACAGAAAUGUAGUUGACGAGGAGGAGGUUUUUAGAAUUUUCGGCGGAGGCCUCCAAA [A48U C50A U65G] ?
< 1e-05 s⁻¹

Any idea what self-cleavage kobs at 2500 uM GlcN6P was measured for AUAAAAGCGCCAGAACUACAGAAAUGUAACUGACGAGGAGGAGGUUUUUCGAAUUUUUGGCGGAUGCCUCCAAA [G29A U30C A48U C58U] ?
< 1e-05 s⁻¹

Any idea what self-cleavage kobs at 2500 uM GlcN6P was measured for AUAAAAGCGCCAGAAAUACAGAAAUGUAGUUGACGAGGAGGAGGUAUAUCGAAUUUUCGGCGGAUGCCUCCAAA [C16A U46A] ?
6.28e-05 s⁻¹

Any idea what self-cleavage kobs at 2500 uM GlcN6P was measured for AUAAAAGCGCCAGAACUACAGAAAUGUAGUUGACGAGGAGGGGGUUUAUCGAAUUUACGGCGGAUGCCUCCAAA [A42G U57A] ?
0.000351 s⁻¹

Any idea what self-cleavage kobs at 2500 uM GlcN6P was measured for AUAAAAGCGCUAGAACUACAGAAAUGUAGUUGACGAGGAGAAGGUUUAUCGAAUUUUCGUCGUAUGCCUUCAAA [C11U G41A G60U G63U C70U] ?
< 1e-05 s⁻¹

Any idea what self-cleavage kobs at 2500 uM GlcN6P was measured for AUAAAAGCGCCAGAACUACAGAAAUGUAGUUGACGAGGUGGAGGUUUAUCGAAUUUUCGGCGGAUACCUGCAAA [A39U G66A C70G] ?
0.000771 s⁻¹

Any idea what self-cleavage kobs at 2500 uM GlcN6P was measured for AUAAAAGCGCCAGAACUACAGAAAUGUAGUUGACGAGGACGAGGUUUAUCGAAUUUUCGGCGGAUGCCUUGAAA [G40C C70U C71G] ?
0.00208 s⁻¹

Any idea what self-cleavage kobs at 2500 uM GlcN6P was measured for AUAAAAGCGCCAGAACUACAGAAAUGUAUUUGACGGGGAGGGCGUUUAUCGAAUUUUCGGCUGACGCCCCCAAA [G29U A36G A42G G43C G62U U65C U69C] ?
< 1e-05 s⁻¹

Any idea what self-cleavage kobs at 2500 uM GlcN6P was measured for AUAAAAGCGCCAGAACUACAGAAAUGUAGUUGACGAGGAGGAGGUUUAGCGAUUUUUCGGCGGAUGCCUCCAAA [U49G A53U] ?
0.000364 s⁻¹

Any idea what self-cleavage kobs at 2500 uM GlcN6P was measured for AUAAAAGCGCCAGAACUACAGAAAUGUAGUUGACGAGUAGGAGGUGUAUCGAAUUUUCGCCGGAUGCCUCCAAA [G38U U46G G60C] ?
< 1e-05 s⁻¹

Any idea what self-cleavage kobs at 2500 uM GlcN6P was measured for AUAAAAGCGCCAGAACUACAGAAAUGUAGUUGACGAGGAGGAGGUUUCUCGAAGUUUCGGCGGAUGCCUCCAAA [A48C U54G] ?
0.000222 s⁻¹

Any idea what self-cleavage kobs at 2500 uM GlcN6P was measured for AUAAAAGCGCCAGAACUACAGAAAUGUAGUUGACGAGGGGGAGGUUUAUCGAAUGUUCGGCGGAUGCCUCCAAA [A39G U55G] ?
0.00613 s⁻¹

Any idea what self-cleavage kobs at 2500 uM GlcN6P was measured for AUAAAAGCGCCCGAACUACAGAAAUGUAGUUGACGAGGACGAGGUUUAUCGAAUUUUCGGGGGAUGCCUCCAAA [A12C G40C C61G] ?
< 1e-05 s⁻¹

Any idea what self-cleavage kobs at 2500 uM GlcN6P was measured for AUAAAAGCGCCAGAACUACAGAAAUGUAGUCGACGAGGAGGAGGUUUAUCGAAUUUUCGGCGGAUGCCUGCAAA [U31C C70G] ?
6.15e-05 s⁻¹

Any idea what self-cleavage kobs at 2500 uM GlcN6P was measured for AUAAAAGCGCCAGAACUACAGAAAUGUAGUUUACGAGGAGCAGGUUUAUCGAAUUUUCAGCGGAUGCCUCCAAA [G32U G41C G59A] ?
< 1e-05 s⁻¹

Any idea what self-cleavage kobs at 2500 uM GlcN6P was measured for AUAAACGCGCCAGAACUACAGAAAUGUAGUUGACGAGGAGUAGGUUUAUCGAAUUUUUGGCGGAUGCUUCCAAA [A6C G41U C58U C68U] ?
< 1e-05 s⁻¹

Any idea what self-cleavage kobs at 2500 uM GlcN6P was measured for AUAAAAGCGCCAGAAUUACAGAAAUGUAGCUGACGAGGAGGAGGUUUAUAGAAUUUUCGGCGGAUGCCUCCAAA [C16U U30C C50A] ?
< 1e-05 s⁻¹

Provenance of the data: the supplement of paper PMC7125110
